Tested on: SK-OV-3 ovarian
measurement.description: NCI-60 one-dose screen, 48 h (100 = growth as untreated, 0 = no growth, -100 = all killed)
protocol.conditions: 10 µM unless noted
Compounds without any hit were thinned out: in the full panel of roughly 83,000, 20% have a hit. Active and inactive are the calls of the source. Rule for the calls: active = growth percent below 10; inactive = the rest.
Please provide measured growth for the entries that follow.

SK-OV-3 ovarian data for "Cn1c(=O)n(C)c2cc(CNCCNc3ccnc4cc(Cl)ccc34)ccc21" ; its growth: 86.2% (inactive)

SK-OV-3 ovarian data for "N#C/C(=C1\SC(=O)CN1c1ccccc1)c1nc2ccccc2s1" ; its growth: 99.1% (inactive)

SK-OV-3 ovarian data for Oc1c(C(Nc2ccccn2)c2cccc(Oc3ccccc3)c2)ccc2cccnc12 (stereo not given) ; its growth: -90.1% (active)

SK-OV-3 ovarian data for CCN1C(=O)N(CC)C2C1NN=c1s/c(=C3\C(=O)N(C(C)C)c4ccccc43)c(=O)n12 (stereo not given) ; its growth: 29.7% (inactive)

SK-OV-3 ovarian data for "O=C(Nc1ccc(I)cc1F)c1cc(Br)ccc1O" ; its growth: -4.76% (active)

SK-OV-3 ovarian data for "COc1ccc(C)c2sc(N(Cc3cccnc3)C(=O)c3ccc(C#N)cc3)nc12" ; its growth: 12.6% (inactive)

SK-OV-3 ovarian data for "COc1ccc(Cn2c(Br)c3c(c2-c2cc(OC)c(OC)c(OC)c2)CCc2sc(NC(=O)c4ccc(OC)cc4)nc2-3)cc1" ; its growth: 108% (inactive)

SK-OV-3 ovarian data for "O=C(Nc1ccc(Cl)cc1F)c1cc(F)ccc1O" ; its growth: -4.5% (active)

SK-OV-3 ovarian data for "CCOC(=O)c1c2c(n3cccc(Cl)c13)C(=O)c1ncccc1C2=O" ; its growth: 54.4% (inactive)

SK-OV-3 ovarian data for "O=C(Nc1ccc(Cl)cc1)N1CCN(c2ccc3nncn3n2)CC1" ; its growth: -3.29% (active)
